- ASSAYED_SYSTEM: hAChE (Homo sapiens, UniProt P22303)
- Construct: gene ACHE; commercial recombinant human enzyme (Sigma-Aldrich)
- Sequence (P22303 32-614): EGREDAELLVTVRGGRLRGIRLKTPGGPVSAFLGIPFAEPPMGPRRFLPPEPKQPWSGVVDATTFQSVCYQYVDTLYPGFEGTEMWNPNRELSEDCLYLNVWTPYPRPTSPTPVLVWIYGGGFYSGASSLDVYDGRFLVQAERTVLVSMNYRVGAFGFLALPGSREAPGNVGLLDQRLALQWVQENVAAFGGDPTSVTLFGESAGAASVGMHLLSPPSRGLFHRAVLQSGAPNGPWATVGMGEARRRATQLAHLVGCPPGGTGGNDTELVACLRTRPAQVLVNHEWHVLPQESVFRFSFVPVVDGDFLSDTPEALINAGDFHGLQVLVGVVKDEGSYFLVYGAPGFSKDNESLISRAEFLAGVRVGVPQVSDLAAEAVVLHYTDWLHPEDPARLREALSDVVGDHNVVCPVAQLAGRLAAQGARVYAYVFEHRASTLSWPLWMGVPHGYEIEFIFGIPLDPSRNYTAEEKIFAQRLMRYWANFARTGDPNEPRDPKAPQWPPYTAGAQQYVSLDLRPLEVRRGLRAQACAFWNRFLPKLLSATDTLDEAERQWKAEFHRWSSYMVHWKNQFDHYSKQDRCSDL
- PROTOCOL_NOTES: Ellman assay, 96-well, […] nm
- Type: biochemical
ENDPOINT: IC50

Q: Could you please provide reported IC50 for CCCCCCc1ccc(C(C)(C)C)cc1OC(=O)NC [1f] ? Thanks!
Result: 6.3 µM

Q: Could you please provide reported IC50 for CC[Si](C)(C)c1cc(OC(=O)NC)ccc1C [4c] ? Thanks!
Result: 1.4 µM

----------
Listed next: entries and their corresponding IC50.
- ASSAYED_SYSTEM: hAChE (Homo sapiens)
- Construct: gene ACHE; commercial recombinant human enzyme (Sigma-Aldrich)
- PROTOCOL_NOTES: Ellman assay, 96-well, […] nm
- Type: biochemical
Give your result in µM as a bare value.

CNC(=O)Oc1cc(C(C)(C)C)ccc1SC(C)C [1o] = 2.2

Turning now to a further record.
Q: Could you please provide reported IC50 for CNC(=O)Oc1cc(F)cc([Si](C)(C)C)c1 [3g] ? Thanks!
Result: 4.2
